Test system: ovarian cancer cells
experiment_notes: Inhibition of tritiated thymidine uptake, ovarian cancer cells
assay_context: read-out: LD50 (dose to inhibit 50% tritiated thymidine uptake); OvCa
measure_name: pIC50
In textbook form, pIC50 equals minus log to base ten of the concentration in mol/L.

Incoming: Value lookup for pIC50; key = O=C(O)CCCc1ccc(N(CCCl)CCCl)cc1 [chlorambucil, reference compound]
Outgoing: 4.22

---

experiment_notes: in vitro
assay_context: human, con a stimulated lymphocytes
measure_name: viability at 11.5 µM
Your answer should be a number followed by the unit of measure.

Incoming: Would you kindly share the measured viability at 11.5 µM for C[C@@H]1CC[C@@]2(NC1)O[C@H]1C[C@H]3[C@@H]4CC=C5C[C@@H](O[C@@H]6O[C@H](CO)[C@@H](O[C@@H]7O[C@@H](C)[C@H](O)[C@@H](O)[C@H]7O)[C@H](O)[C@H]6O[C@@H]6O[C@@H](C)[C@H](O)[C@@H](O)[C@H]6O)CC[C@]5(C)[C@H]4CC[C@]3(C)[C@H]1[C@@H]2C [Solamargine, solamargine] ?
Outgoing: 79%

Values from patent US5958770A
